Exercise: state measured solubility (g/100 g solution) for each of the molecules provided.
Protocol Details: xn = mol fraction of the nth substance listed, in the solute-free solvent
Recorded Conditions: 288.15 K; x2 = 0.3
Answer using only a numeral; do not append any unit.

Task: solubility (g/100 g solution) for Cc1ncc(CO)c(CO)c1O.Cl + O + CCCO ?
Result: 1.2

Task: solubility (g/100 g solution) for Cc1c(Br)c(=O)n(C2CCCC2)c2nc(Cl)ncc12 + CCOC(C)=O + CCO ?
Result: 0.418

Task: State the recorded solubility (g/100 g solution) for this entry: Cc1c(Br)c(=O)n(C2CCCC2)c2nc(Cl)ncc12 + CC1=CC(=O)CC(C)(C)C1 + CC(C)O
Result: 0.45

Task: Please report the recorded solubility (g/100 g solution) for Cc1c(Br)c(=O)n(C2CCCC2)c2nc(Cl)ncc12 + C1CCOC1 + CCO .
Result: 2.16

Task: May I ask what solubility (g/100 g solution) has been recorded for Cc1ncc(CO)c(CO)c1O.Cl + O + CC#N ?
Result: 0.889

Task: # query: solubility (g/100 g solution) of entry Cc1ncc(CO)c(CO)c1O.Cl + O + CC(C)O
Result: 0.632

Task: I would be grateful if you could share the reported solubility (g/100 g solution) for COC(=O)C(N)CS.Cl (configuration not stated) + CCO + ClCCl .
Result: 3.14

====

Protocol Details: xn = mol fraction of the nth substance listed, in the solute-free solvent
Recorded Conditions: 298.15 K; x2 = 0.6
Quantity Kind: solubility (g/100 g solution)
A bare number is all that is needed in reply.

Task: Item under review: CCOC(=O)OC1=C(c2cc(C)ccc2C)C(=O)NC12CCC(OC)CC2 (stereo not given) + CCO + O . Reported solubility (g/100 g solution)?
Result: 7.18

Task: Look at this compound and give its reported solubility (g/100 g solution). Cc1c(Br)c(=O)n(C2CCCC2)c2nc(Cl)ncc12 + C1CCOC1 + CCO
Result: 5.12

Task: Find the recorded solubility (g/100 g solution) belonging to CCOC(=O)OC1=C(c2cc(C)ccc2C)C(=O)NC12CCC(OC)CC2 (stereo not given) + CC(C)=O + O and report it.
Result: 15.4

Task: Find the recorded solubility (g/100 g solution) belonging to Cc1ncc(CO)c(CO)c1O.Cl + O + CC(C)O and report it.
Result: 5.89

Task: Dear colleague, I am looking for the recorded solubility (g/100 g solution) of the following compound: CCOc1ccccc1C(N)=O + CCO + CC#N
Result: 8.45

Task: Look at this compound and give its reported solubility (g/100 g solution). CCOc1ccccc1C(N)=O + CC#N + CC(C)O
Result: 6.66

Task: Query (compound): Cc1c(Br)c(=O)n(C2CCCC2)c2nc(Cl)ncc12 + CCOC(C)=O + CCO ; field requested: solubility (g/100 g solution)
Result: 0.811

Task: Requested read-out: solubility (g/100 g solution). Entry: COC(=O)C(N)CS.Cl (stereo not given) + CCO + ClCCl
Result: 6.66

Task: Suppose we examine the compound Cc1ncc(CO)c(CO)c1O.Cl + O + CC#N ; what solubility (g/100 g solution) value has been reported?
Result: 9.5

Task: Value lookup for solubility (g/100 g solution); key = CCOC(=O)OC1=C(c2cc(C)ccc2C)C(=O)NC12CCC(OC)CC2 (stereo not given) + CC(C)O + O
Result: 7.67

Task: What does the record list as solubility (g/100 g solution) for Cc1ncc(CO)c(CO)c1O.Cl + O + CCCO ?
Result: 7.03

Task: Which solubility (g/100 g solution) value belongs to Cc1c(Br)c(=O)n(C2CCCC2)c2nc(Cl)ncc12 + CC1=CC(=O)CC(C)(C)C1 + CC(C)O ?
Result: 1.27

Task: # get_value(readout='solubility (g/100 g solution)', item= N#CCNC(=O)c1cnccc1C(F)(F)F + CCOC(C)=O + CCO )
Result: 8.3

Task: Recorded solubility (g/100 g solution) for CCOc1ccccc1C(N)=O + CO + CC#N , please?
Result: 11

Task: Which solubility (g/100 g solution) is reported for this compound? CCOC(=O)OC1=C(c2cc(C)ccc2C)C(=O)NC12CCC(OC)CC2 (stereo not given) + CO + O
Result: 3.56
